For each record, write down the corresponding MRT inf.
- PROTOCOL_DESCRIPTION: Observed MRTinfinity in CD-1 mouse at 5 mg/kg, ip measured after 24 hrs by LC-MS/MS analysis
- Assay type: ADME, organism-based
- TEST_PARAMETERS: in vivo
Just the number please, in h, no unit attached.

Name the recorded MRT inf for "Cc1cc(=O)oc2cc(O)cc(OCCCCCN3CCC(C(=O)Nc4ncc(SCc5ncc(C(C)(C)C)o5)s4)CC3)c12" .
4.17

Same read-out for "Cc1cc(=O)oc2cc(OCCCN3CCC(C(=O)Nc4ncc(SCc5ncc(C(C)(C)C)o5)s4)CC3)cc(O)c12" ?
3.84

====

For each record, write down the corresponding Tmax.
- PROTOCOL_DESCRIPTION: Tmax in CD-1 mouse at 5 mg/kg, ip measured after 24 hrs by LC-MS/MS analysis
- Assay type: ADME, organism-based
- TEST_PARAMETERS: in vivo
Just the number please, in min, no unit attached.

Name the recorded Tmax for "Cc1cc(=O)oc2cc(OCCCN3CCC(C(=O)Nc4ncc(SCc5ncc(C(C)(C)C)o5)s4)CC3)cc(O)c12" .
15

Same read-out for "Cc1cc(=O)oc2cc(O)cc(OCCCCCN3CCC(C(=O)Nc4ncc(SCc5ncc(C(C)(C)C)o5)s4)CC3)c12" ?
15

Value source: ChEMBL document CHEMBL5365461
